- TESTED SYSTEM: recombinant human GST-SYK (Homo sapiens, UniProt P43405)
- PROTOCOL TEXT: Homogeneous Time-Resolved Fluorescence (HTRF) assay for the recombinant human Syk enzyme
- PROTOCOL CONDITIONS: recombinant human GST-SYK 5 pM, ATP 25 μM, read-out: rhSYK Activity (IC50)
QUANTITY MEASURED: IC50 (nM)

Recorded IC50, per entry:
CC1(C)Oc2c(cc(Nc3nccc(C(F)(F)F)n3)cc2-c2cnc(C(C)(O)C(F)(F)F)s2)NC1=O (stereo not shown) :: 35.8
CC1(C)C[C@@](O)(c2ncc(-c3cc(Nc4nccc(C(F)(F)F)n4)cc4cn[nH]c34)s2)CC[C@@H]1C(=O)O (single isomer, unassigned) :: 0.552
CC1(C)Oc2c(cc(Nc3nccc(-c4c[nH]nn4)n3)cc2-c2cnc([C@]3(O)CC[C@@H](C(=O)O)CC3)s2)NC1=O :: 0.3
CC1(C)Oc2c(cc(Nc3nccc(C(F)(F)F)n3)cc2-c2cnc(C3(O)CCC3)s2)NC1=O :: 13.2
CC(O)(c1ncc(-c2cc(Nc3nccc(C(F)(F)F)n3)cc3cn[nH]c23)s1)[C@H]1CC[C@H](C(=O)O)CC1 (single isomer, unassigned) :: 0.114

[A] OC1(c2ncc(-c3cc(Nc4nccc(C(F)(F)F)n4)cc4[nH]ccc34)s2)CCC1
[B] CC(O)(c1ncc(-c2ccnc3cc(Nc4nccc(C(F)(F)F)n4)ccc23)s1)[C@H]1CC[C@H](C(=O)O)CC1 (single isomer, unassigned)
[C] CC1(C)C[C@@H](C(C)(O)c2ncc(-c3cc(Nc4nccc(C(F)(F)F)n4)cc4cn[nH]c34)s2)CC[C@@H]1C(=O)O (single isomer, unassigned)
[D] CC1(C)C[C@@](O)(c2ncc(-c3cc(Nc4nccc(C(F)(F)F)n4)cc4[nH]ccc34)s2)CC[C@@H]1C(=O)O (single isomer, unassigned)
[E] CC(O)(c1ncc(-c2cc(Nc3nccc(C(F)(F)F)n3)cc3[nH]cnc23)s1)[C@H]1CC[C@H](C(=O)O)CC1 (single isomer, unassigned)
Lookup: hey, can you rank those compounds up there by IC50? biggest number first please List labels; respect the requested ordering.
Found: B, A, C, E, D
(B: 61.6 nM, A: 10.4 nM, C: 0.866 nM, E: 0.5 nM, D: 0.06 nM)
